Biological target: Protein kinase C alpha type (Homo sapiens); further: in the data inactive means no Kd found up to 30 µM
The source made the active and inactive calls.
Your reply should match one of these outcome classes. active, inactive

In this assay, the call recorded for "C[C@@H](c1ccc2nccn2c1)n1nnc2ncc(-c3cnn(C)c3)nc21" was what? inactive

====

Sequence of the target: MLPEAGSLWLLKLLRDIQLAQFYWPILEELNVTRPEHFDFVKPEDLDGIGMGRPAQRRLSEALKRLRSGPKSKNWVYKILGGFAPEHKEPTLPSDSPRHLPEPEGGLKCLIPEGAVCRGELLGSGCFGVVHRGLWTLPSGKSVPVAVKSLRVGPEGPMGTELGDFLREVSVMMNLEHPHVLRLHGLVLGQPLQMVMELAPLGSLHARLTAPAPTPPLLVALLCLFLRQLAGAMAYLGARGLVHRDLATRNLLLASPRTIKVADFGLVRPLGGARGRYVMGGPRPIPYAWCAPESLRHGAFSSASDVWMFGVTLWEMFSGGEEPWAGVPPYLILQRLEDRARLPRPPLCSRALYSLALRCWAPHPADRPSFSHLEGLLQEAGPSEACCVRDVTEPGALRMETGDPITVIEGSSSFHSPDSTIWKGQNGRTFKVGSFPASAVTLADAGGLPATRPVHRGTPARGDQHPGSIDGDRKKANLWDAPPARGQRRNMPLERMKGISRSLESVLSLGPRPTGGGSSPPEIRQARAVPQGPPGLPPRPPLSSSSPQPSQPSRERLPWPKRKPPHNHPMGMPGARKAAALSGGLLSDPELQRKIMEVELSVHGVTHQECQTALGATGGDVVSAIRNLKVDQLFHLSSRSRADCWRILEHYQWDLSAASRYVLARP
The source made the active and inactive calls.
Property label: Kd

Which Kd is reported for this compound? "COC(=O)N[C@@H](C)CNc1nccc(-c2cn(C(C)C)nc2-c2cc(Cl)cc(NS(C)(=O)=O)c2F)n1" > 30 µM (inactive)

Which Kd is reported for this compound? "Cc1nc(N)sc1-c1ccnc(Nc2ccc(N3CCOCC3)cc2)n1" > 30 µM (inactive)

Which Kd is reported for this compound? CN1N=C(N)c2cn([C@@H]3O[C@H](COP(=O)(O)O)[C@@H](O)[C@H]3O)c3ncnc1c23 [TRICIRIBINE PHOSPHATE] > 30 µM (inactive)

Which Kd is reported for this compound? "Cc1ccc(-n2nc(C(C)(C)C)cc2NC(=O)NCc2cc(F)ccc2Oc2ccc3c(cnn3CCO)c2)cc1" 1.66 µM (active)

Which Kd is reported for this compound? "Cn1cc(-c2ccc(F)c(C(F)(F)F)c2)nc1C1CCN(c2ncnc3[nH]ncc23)CC1" > 30 µM (inactive)

Which Kd is reported for this compound? "CNC(=O)c1cc(Oc2ccc(NC(=O)Nc3ccc(Cl)c(C(F)(F)F)c3)c(F)c2)ccn1" > 30 µM (inactive)

Which Kd is reported for this compound? "Cn1ncc(Cl)c1-c1cc(C(=O)N[C@H](CN)Cc2cccc(F)c2)sc1Cl" > 30 µM (inactive)

Which Kd is reported for this compound? "C=CC(=O)N1CCC(Oc2cc3c(Nc4ccc(Cl)c(Cl)c4F)ncnc3cc2OC)CC1" 1.68 µM (active)

====

Below: a set of entries, each annotated with reported Kd.
Target: MAP kinase-activated protein kinase 2 (Homo sapiens, UniProt P49137); further: in the data inactive means no Kd found up to 30 µM
Sequence (P49137 whole entry): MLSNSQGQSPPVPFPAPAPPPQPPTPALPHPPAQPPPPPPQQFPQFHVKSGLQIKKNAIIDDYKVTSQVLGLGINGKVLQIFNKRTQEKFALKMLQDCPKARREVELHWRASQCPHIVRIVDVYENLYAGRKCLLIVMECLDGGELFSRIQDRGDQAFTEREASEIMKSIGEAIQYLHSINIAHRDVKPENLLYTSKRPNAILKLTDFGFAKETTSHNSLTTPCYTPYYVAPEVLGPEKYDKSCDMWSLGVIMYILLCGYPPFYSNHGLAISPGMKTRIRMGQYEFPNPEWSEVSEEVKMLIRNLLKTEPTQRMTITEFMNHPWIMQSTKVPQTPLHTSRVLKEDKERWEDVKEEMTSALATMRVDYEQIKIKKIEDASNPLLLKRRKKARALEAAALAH
Calls of active or inactive are those of the source.

# count of solved cases: 3
C[C@@H]1CN(Cc2ccc(F)cc2)[C@@H](C)CN1C(=O)c1cc2c(C(=O)C(=O)N(C)C)cn(C)c2cc1Cl [TALMAPIMOD] : 0.019 µM
N[C@@H]1CCCN(c2c(/C=C3\SC(=O)NC3=O)cccc2-c2ccccc2)C1 : > 30 µM (inactive)
O=C(Nc1ccc(-c2ccnc(Nc3ccc(N4CCOCC4)cc3)n2)cc1)C1CCCN1 (centres undefined) [XL-019] : 0.354 µM (active)

Which Kd is reported for this molecule? OCCn1cc(-c2cnc3nnn(Cc4ccc5ncccc5c4)c3n2)cn1 [PF-04217903] > 30 µM (inactive)
